test system: A549-CANX-COX4; assay: lowest phenotypically active concentration; higher = less potent; conditions: treatment time: 24 h
observation_type: lowest phenotypically active concentration (µM)

molecule	measured_target	endpoint_value
C=C1CC[C@@H]2[C@](C)(CO)[C@H](O)CC[C@@]2(C)[C@@H]1C/C=C1/C(=O)OC[C@H]1O [Andrographolide]	A549-CANX-COX4	9
Cc1ccc(-n2nc(C(C)(C)C)cc2NC(=O)Nc2ccc(OCCN3CCOCC3)c3ccccc23)cc1	A549-CANX-COX4	9
CCc1cccc(CC)c1NC(=O)N1Cc2[nH]nc(NC(=O)c3ccc(N4CCN(C)CC4)cc3)c2C1	A549-CANX-COX4	3
COc1cc([C@@H]2c3cc4c(cc3[C@@H](O[C@@H]3O[C@@H]5CO[C@@H](C)O[C@H]5[C@H](O)[C@H]3O)[C@H]3COC(=O)[C@H]23)OCO4)cc(OC)c1O [etoposide]	A549-CANX-COX4	1
CS(=O)(=O)c1cccc(CNc2nc(Nc3ccc4c(c3)CCC(=O)N4)ncc2C(F)(F)F)c1	A549-CANX-COX4	3
Cc1c(NC(=O)OC[C@@H]2COCCN2)cn2ncnc(Nc3ccc4c(cnn4Cc4cccc(F)c4)c3)c12	A549-CANX-COX4	1

====

system: A549-ACTB-RAB5A; experiment: phenotypically active (imaging signature differs from DMSO and reproducible) at any of 0.3-9 uM (binary (1 = active, 0 = inactive)); higher = active; conditions: treatment time: 24 h
Each entry below carries its reported phenotypically active.

compound	phenotypically active
CC1(C)CCC(c2ccc(Cl)cc2)=C(CN2CCN(c3ccc(C(=O)NS(=O)(=O)c4ccc(N[C@H](CCN5CCOCC5)CSc5ccccc5)c(S(=O)(=O)C(F)(F)F)c4)cc3)CC2)C1	0
C[C@]1(OC(=O)/C=C/c2ccccc2)C[C@@H](O)[C@]2(O)C=CO[C@@H](O[C@@H]3O[C@H](CO)[C@@H](O)[C@H](O)[C@H]3O)[C@@H]21 [Harpagoside]	0
O=C1Cc2c([nH]c3ccc(Br)cc23)-c2ccccc2N1	1
Cc1cc2c(F)c(Oc3ncnn4cc(OC[C@@H](C)OC(=O)[C@H](C)N)c(C)c34)ccc2[nH]1 [brivanib-alaninate]	1
O=c1c(O)c(-c2ccc(O)cc2)oc2cc(O)cc(O)c12	0
Nc1ncnc2[nH]nc(Nc3ccc(F)cc3)c12	1
CS(=O)(=O)c1cccc(CNc2nc(Nc3ccc4c(c3)CCC(=O)N4)ncc2C(F)(F)F)c1	1

====

tested on: A549-TP53BP1-CLTA; test: phenotypically active (imaging signature differs from DMSO and reproducible) at any of 0.3-9 uM (binary (1 = active, 0 = inactive)); higher = active; settings: treatment time: 24 h
Where a name gives a salt, the structure may show the parent alone.

compound	phenotypically active
CC(C)(Sc1ccc(CCN(CCCCC2CCCCC2)C(=O)NC2CCCCC2)cc1)C(=O)O	0
CC(C)OC(=O)C(C)(C)Oc1ccc(C(=O)c2ccc(Cl)cc2)cc1 [Fenofibrate]	0
COc1ccc2c3c([nH]c2c1)[C@H]1C[C@H]2[C@H](C[C@@H](O)[C@H](OC)[C@H]2C(=O)O)CN1CC3 [Reserpinic acid hydrochloride]	0
O=C(NOC[C@H](O)CO)c1ccc(F)c(F)c1Nc1ccc(I)cc1F	1

====

tested on: HepG2-GM130-SQSTM1; test: phenotypically active (imaging signature differs from DMSO and reproducible) at any of 0.3-9 uM (binary (1 = active, 0 = inactive)); higher = active; conditions: treatment time: 24 h
observation_type: phenotypically active

1. CCCCc1oc2ccc(NS(C)(=O)=O)cc2c1C(=O)c1ccc(OCCCN(CCCC)CCCC)cc1 1 (active)
2. CC(=O)NCC(=O)N1[C@@H]2CC[C@H]1c1ccc(Nc3ncc(C(F)(F)F)c(NC4CCC4)n3)cc12 1 (active)
3. Cc1ccc(-c2cc(C(F)(F)F)nn2-c2ccc(S(N)(=O)=O)cc2)cc1 0 (inactive)
4. C=CC(=O)N1CCC[C@@H](n2nc(-c3cccc(C(=O)Nc4ccc(C(C)C)c(C)c4)c3)c3c(N)ncnc32)C1 1 (active)

====

system: A549-CANX-COX4; test: phenotypically active (imaging signature differs from DMSO and reproducible) at any of 0.3-9 uM (binary (1 = active, 0 = inactive)); higher = active; conditions: treatment time: 24 h
Counter-ions that a name gives are not always drawn.
# phenotypically active values compiled below
observation_type: phenotypically active

compound	observation_type	endpoint_value
Cc1cccc(Nc2cc(Cl)nc(SCC(=O)O)n2)c1C	phenotypically active	0
O=C(O)[C@@H]1[C@H]2C[C@H]3c4[nH]c5ccccc5c4CCN3C[C@@H]2CC[C@@H]1O [Yohimbinic acid monohydrate]	phenotypically active	0
C[C@H](NC(=O)c1sccc1OCc1ccc(Cl)cc1)c1ccccc1	phenotypically active	0
O=c1cc(N2CCOCC2)oc2c(-c3cccc4c3sc3ccccc34)cccc12	phenotypically active	0
CN(C)CCCN1c2ccccc2CCc2ccc(Cl)cc21 [clomipramine]	phenotypically active	0
COc1ccc2c3c1O[C@H]1C[C@@H](O)C=C[C@@]31CCN(C)C2 [galantamine]	phenotypically active	0
O=C(NCc1cccc(O)c1)Nc1nc(-c2ccncc2)cs1 [RKI 1447 dihydrochloride]	phenotypically active	1
N=C(N)NN=Cc1c(Cl)cccc1Cl [guanabenz]	phenotypically active	0
COc1cc2c(cc1-c1c(C)noc1C)ncc1[nH]c(=O)n([C@H](C)c3ccccn3)c12 [I-BET 151 dihydrochloride]	phenotypically active	1
Cc1ccc(S(=O)(=O)c2ccc([N+](=O)[O-])o2)cc1	phenotypically active	0
CCOc1cc(N2CCC(O)CC2)ccc1Nc1ncc2c(n1)N(C)c1ccccc1C(=O)N2C	phenotypically active	1
N[C@@H](C(=O)O)c1ccc(C(=O)O)c(C(=O)O)c1	phenotypically active	0
Nc1ncnc2c1c(-c1ccc(Oc3ccccc3)cc1)nn2C1CCCC1	phenotypically active	0
Cc1cccc(-c2nn(C(=S)Nc3ccccc3)cc2-c2ccnc3ccccc23)n1	phenotypically active	1
Cc1ccc(/C(=C/CN2CCCC2)c2cccc(/C=C/C(=O)O)n2)cc1 [acrivastine]	phenotypically active	1
CN1CCCC(n2nc(Cc3ccc(Cl)cc3)c3ccccc3c2=O)CC1 (stereo not given) [azelastine]	phenotypically active	1
COc1cc2nc(N3CCCN(C)CC3)nc(NC3CCN(Cc4ccccc4)CC3)c2cc1OC	phenotypically active	1
CC(Oc1ccc(O)cc1)(P(=O)(O)O)P(=O)(O)O	phenotypically active	0
Nc1nnc(-c2cccc(Cl)c2Cl)c(N)n1 [lamotrigine]	phenotypically active	0
O=c1cc(-c2ccc(O)cc2)oc2cc(O)cc(O)c12 [Apigenin]	phenotypically active	0

====

test system: WPMY1-TP53BP1-CLTA; experiment: phenotypically active (imaging signature differs from DMSO and reproducible) at any of 0.3-9 uM (binary (1 = active, 0 = inactive)); higher = active; conditions: treatment time: 24 h
Where a name gives a salt, the structure may show the parent alone.
Reported values of phenotypically active for individual entries

molecule	measured_target	phenotypically active
CC[C@H]1OC(=O)[C@H](C)[C@@H](O[C@H]2C[C@@](C)(OC)[C@@H](O)[C@H](C)O2)[C@H](C)[C@@H](O[C@@H]2O[C@H](C)C[C@H](N(C)C)[C@H]2O)[C@](C)(O)C[C@@H](C)C(=O)[C@H](C)[C@@H](O)[C@]1(C)O	WPMY1-TP53BP1-CLTA	0
COc1ccc(C2(CNC(=O)c3ccc(NC(=O)c4ccco4)cc3)CCOCC2)cc1	WPMY1-TP53BP1-CLTA	0
c1ccc2c(c1)Cc1c(Nc3ccc4c(c3)OCCO4)n[nH]c1-2	WPMY1-TP53BP1-CLTA	1
CCN(CC)C(C)CN1c2ccccc2Sc2ccccc21 (stereo not drawn)	WPMY1-TP53BP1-CLTA	0
CCOC(=O)c1ccc(N2NC(=O)/C(=C/c3ccc([N+](=O)[O-])o3)C2=O)cc1	WPMY1-TP53BP1-CLTA	0
CN1CCN2c3ncccc3Cc3ccccc3C2C1 (stereo not drawn)	WPMY1-TP53BP1-CLTA	0
N#Cc1c(O)c2c(-c3ccc(-c4ccccc4O)cc3)csc2[nH]c1=O	WPMY1-TP53BP1-CLTA	0
c1ccc(CN(CC2=NCCN2)c2ccccc2)cc1	WPMY1-TP53BP1-CLTA	0
CN(C)CCCSc1ccccc1NC(=O)/C=C/c1ccccc1 [Cinanserin hydrochloride]	WPMY1-TP53BP1-CLTA	0
COc1ccc2[nH]c(C(=O)c3ccccc3)cc2c1	WPMY1-TP53BP1-CLTA	1
CCCCCCCCCN1C[C@H](O)[C@@H](O)[C@H](O)[C@H]1CO	WPMY1-TP53BP1-CLTA	0
O=C(O)c1ccc(N2N=C(Cc3ccccc3)/C(=C/c3ccc(-c4ccccc4F)o3)C2=O)cc1	WPMY1-TP53BP1-CLTA	0
O=C(CCCCCCC(=O)NO)NO	WPMY1-TP53BP1-CLTA	0
Nc1ncnc2c1ncn2[C@@H]1O[C@H](CO)C[C@H]1O [Cordycepin]	WPMY1-TP53BP1-CLTA	0
O=C(O)C(CO)c1ccccc1 (stereo not drawn)	WPMY1-TP53BP1-CLTA	0
O=C(c1ccc(C(=O)N2CCC(N3CCCC3)CC2)c(Nc2ccccc2)c1)N1CCC(N2CCCC2)CC1	WPMY1-TP53BP1-CLTA	0
Cc1cc(-c2ccc(/C=C3\S/C(=N\c4ccc(Cl)c(C(=O)O)c4)NC3=O)o2)c([N+](=O)[O-])cc1C	WPMY1-TP53BP1-CLTA	0
Nc1ccc(-c2ccc3ncc4ccc(=O)n(-c5cccc(C(F)(F)F)c5)c4c3c2)cn1	WPMY1-TP53BP1-CLTA	1

Measured values drawn from the supplement of paper PMC7411054 for this set.
